Target: Beta-2 adrenergic receptor (Mus musculus) (UniProt P18762)
Sequence (P18762 whole entry, looked up): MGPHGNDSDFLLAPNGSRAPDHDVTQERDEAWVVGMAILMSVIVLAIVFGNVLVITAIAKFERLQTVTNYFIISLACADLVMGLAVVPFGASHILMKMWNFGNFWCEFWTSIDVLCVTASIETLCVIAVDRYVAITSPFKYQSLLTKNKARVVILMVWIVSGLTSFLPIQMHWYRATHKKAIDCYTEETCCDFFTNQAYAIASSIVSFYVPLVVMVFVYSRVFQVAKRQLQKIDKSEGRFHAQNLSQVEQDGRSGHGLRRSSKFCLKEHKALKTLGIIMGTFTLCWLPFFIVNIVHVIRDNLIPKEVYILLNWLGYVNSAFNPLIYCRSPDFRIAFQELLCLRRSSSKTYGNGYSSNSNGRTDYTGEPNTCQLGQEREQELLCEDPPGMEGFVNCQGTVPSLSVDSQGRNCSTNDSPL
Experiment: KD constant value was evaluated for the displacement of ICYP (iodocyanopindolol) binding
pKd: −log10 of the molar value.

{"columns": ["COMPOUND", "pKd"],
 "data": [
  ["CC(CCCCN)NCC(O)c1ccc(O)c(O)c1 (configuration not stated)", 5.00],
  ["Cc1ccc(C(=O)NCCCCC(C)NCC(O)c2ccc(O)c(O)c2)cc1 (configuration not stated)", 6.49]
]}

---

Target: Beta-2 adrenergic receptor (Mus musculus) (UniProt P18762)
Experiment: KD constant value was evaluated for the displacement of ICYP (iodocyanopindolol) binding in […] lymphoma cell
READOUT NAME: Kd

{"columns": ["COMPOUND", "RESULT"],
 "data": [
  ["Cc1ccc(NC(=O)NCCCCC(C)NCC(O)c2ccc(O)c(O)c2)cc1 (stereo unspecified)", "470 nM"]
]}
